tested on: CAKI-1 renal; experiment: NCI tumour cell line growth inhibition, 48 h
For each of the compounds below, state its TGI.
One number for each entry, in µM.

CN1CCN(c2ccc(NC3=CC(=O)c4ncncc4C3=O)cc2)CC1 ... 2.68
COC(=O)C12Oc3ccc(-c4ccc5c(c4O)C(O)=C4C(=O)CC(C)C(O)C4(C(=O)OC)O5)c(O)c3C(O)=C1C(=O)CC(C)C2O (stereo not given) ... 4.54
Cc1[nH]c2cc([N+](=O)[O-])ccc2c1[N+](=O)[O-] ... 47.1

Go through the items and report each one's TGI.
1. COc1ccc(Nc2nc(N)c(C(=O)c3ccc(Cl)cc3)s2)cc1
2. CCN(C(=O)N[C@H](C(=O)N[C@@H](CSC)C(=O)N[C@@H](C)C(=O)OC)C(C)C)c1ccccc1

Result string:
[13.4, 36.3]

====

For each of the compounds below, state its TGI.
system: HOP-92 NSCLC; assay: NCI tumour cell line growth inhibition, 48 h
Answers are plain numbers, in µM.

CCOCCOCCOCCOCCOCCOCCOCCOCCOCCO (tested in a mixture with another compound) ... 2.9
COc1ccc(C2=Nc3ccccc3N=C(SC)C2)cc1 ... 61.9
COc1cc(C(=O)O[C@H](C(=O)NCCCCNC(=O)[C@@H](OC(=O)c2cc(OC)cc3c(C)cccc23)[C@]2(C)CO2)[C@]2(C)CO2)c2cccc(C)c2c1 ... 0.22
Fc1ccc(C(OCCN2CCC3CCC(C2)N3C/C=C/c2cccs2)c2ccc(F)cc2)cc1 (centres undefined) ... 20.3

Continue with the next compound.
For this compound ( "C(=N\NC1=NCCN1)/c1ccc2ccccc2c1" ), measured TGI is 13.3

====

test system: HT29 colon; test: NCI tumour cell line growth inhibition, 48 h; in the data active = GI50 below about 0.43 µM; inactive = the rest
Response enum: 1 (yes) for active, 0 (no) for inactive

Example entries and their recorded answers appear below.
O=C1NC(=NCCc2ccc(Br)cc2)S/C1=C\c1ccc2ncccc2c1 ... 0 (no)
O=C1C(=C([O-])c2ccccc2)C(=O)c2ccccc21.O=C1C(=C([O-])c2ccccc2)C(=O)c2ccccc21.[Ni+2] ... 0 (no)
COC(=O)c1cc(-c2ccc(S(C)(=O)=O)cc2)[nH]c1N/N=C/c1c(Cl)cccc1Cl ... 1 (yes)
COc1ccc(-c2[nH]ncc2Nc2cc(OC)c(OC)c(OC)c2)cc1 ... 0 (no)

Please find the next molecule below.
Query string: Kindly provide the recorded test outcome for the following molecule: "CCOC(=O)/C=C1/SC(=Nc2ccc(C#N)cc2)N(Cc2ccco2)C1=O"
Result string: 0 (no)

====

test system: UACC-62 melanoma; test: NCI tumour cell line growth inhibition, 48 h
For each of the compounds below, state its log10 of TGI.
Scale: decimal log of TGI, TGI in µM.

// known answers, use as guide
CN1CCN(c2ccc(NC3=CC(=O)c4ncncc4C3=O)cc2)CC1 ... -0.09
COc1ccc2nc3ccccc3c(NCCNCC(C)O)c2c1 (stereo not given) ... 0.32

Go through the items and report each one's log10 of TGI.
1. Clc1ccc(-c2nc(NCc3ccco3)c3ccccc3n2)c(Cl)c1
2. C[C@]12CCC(=O)C[C@@H]1CC[C@@H]1[C@@H]2CC[C@]2(C)[C@@H](OC(=O)N(CCCl)N=O)CC[C@@H]12
3. CN(C)CC1CCC/C(=C\c2ccc(OC(=O)/C=C/c3ccc(Cl)cc3)cc2)C1=O (stereo not given)
4. COc1ccc(-c2c(-c3ccc(C#N)c(F)c3)nc(N3CCC(N)CC3)n(C)c2=O)cc1F

Result string:
[1.51, 1.07, 1.28, 1.52]
